targetDesc: calmodulin (UniProt P0DP23)
procedureDetails: microscale thermophoresis, labelled SXkmer A with free calmodulin in solution
assayEndpoint: Kd (nM)
Please respond with the number in nM and leave the unit unwritten.

State recorded Kd with calmodulin (UniProt P0DP23), entry Loop calmodulin binder SXkmer A (KMRPGVN) (designed binder) , no comment.
140

Data credit: patent US20260234206A1
